The origin of these recorded values is ChEMBL document CHEMBL6103653.

Items are presented alongside their recorded inhibition.
Species on record: Homo sapiens
ASSAY_SUMMARY: Inhibition of DRAK2 autophosphorylation (unknown origin) at 20 microg/ml by ADP-Glo assay relative to control
MEASUREMENT_CONDITIONS: dose 20.0 µg/ml
# do not omit the unit; it follows the number

Solved entries:
COMPOUND_STRUCTURE: C/C=C1/C[N@@+]2(C)CC[C@@]34c5ccccc5N[C@]32C(=O)[C@@H]2COC[C@@]4(C(=O)[O-])[C@H]12
inhibition: 47.7%
//
COMPOUND_STRUCTURE: C/C=C1/C[N@@+]2(C)CC[C@@]34c5ccccc5N[C@]32C(=O)[C@H]2[C@@H]1[C@]4(C(=O)[O-])CO[C@@H]2C
inhibition: 49.2%
//
COMPOUND_STRUCTURE: C/C=C1/C[N@@+]2(C)CC[C@@]34c5ccccc5N[C@]32C(=O)[C@@H]2[C@H](C)OC[C@@]4(C(=O)[O-])[C@H]12
inhibition: 16.5%

Let us move to another entry and its inhibition.
Kindly note the recorded inhibition for C/C=C1/C[N@@+]2(C)CC[C@@]34c5ccccc5N[C@]32C(=O)[C@]2(C)OC[C@@]4(C(=O)[O-])[C@H]12 , which is 4.5%

---

Items are presented alongside their recorded inhibition.
SYSTEM: ATP-citrate synthase (Homo sapiens) (UniProt P53396)
Sequence (P53396 whole entry): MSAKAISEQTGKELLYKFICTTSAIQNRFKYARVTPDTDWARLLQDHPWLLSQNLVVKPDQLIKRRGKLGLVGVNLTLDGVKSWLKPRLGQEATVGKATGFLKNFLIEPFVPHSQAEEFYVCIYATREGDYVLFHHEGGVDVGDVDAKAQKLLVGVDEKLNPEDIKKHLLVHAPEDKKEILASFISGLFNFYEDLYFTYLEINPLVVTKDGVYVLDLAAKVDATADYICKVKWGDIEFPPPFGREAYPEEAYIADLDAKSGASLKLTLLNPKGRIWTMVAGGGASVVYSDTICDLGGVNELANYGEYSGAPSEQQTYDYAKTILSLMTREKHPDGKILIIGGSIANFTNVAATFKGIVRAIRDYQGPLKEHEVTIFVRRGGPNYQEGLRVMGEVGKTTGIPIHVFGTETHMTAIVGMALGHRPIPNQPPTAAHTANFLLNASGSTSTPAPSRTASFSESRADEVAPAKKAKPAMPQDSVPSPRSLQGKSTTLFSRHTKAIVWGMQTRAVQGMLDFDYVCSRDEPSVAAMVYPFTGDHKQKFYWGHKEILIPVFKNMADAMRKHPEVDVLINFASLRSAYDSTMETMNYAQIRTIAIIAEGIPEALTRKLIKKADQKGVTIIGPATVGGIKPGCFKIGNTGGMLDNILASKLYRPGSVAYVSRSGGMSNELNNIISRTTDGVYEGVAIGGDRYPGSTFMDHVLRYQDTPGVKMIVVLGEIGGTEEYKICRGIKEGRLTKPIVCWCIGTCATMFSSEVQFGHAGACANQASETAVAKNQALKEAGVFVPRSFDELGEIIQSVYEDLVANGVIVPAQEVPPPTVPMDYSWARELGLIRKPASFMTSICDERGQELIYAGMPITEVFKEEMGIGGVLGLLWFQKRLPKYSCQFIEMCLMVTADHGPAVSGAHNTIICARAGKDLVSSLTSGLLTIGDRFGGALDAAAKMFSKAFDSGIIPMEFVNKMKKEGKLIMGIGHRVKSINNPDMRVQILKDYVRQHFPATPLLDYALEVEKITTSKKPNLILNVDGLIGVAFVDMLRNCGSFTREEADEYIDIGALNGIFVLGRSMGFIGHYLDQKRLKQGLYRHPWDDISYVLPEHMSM
ASSAY_SUMMARY: Inhibition of ATP citrate lyase (unknown origin) at 20 microg/ml by ADP-Glo assay relative to control
MEASUREMENT_CONDITIONS: dose 20.0 µg/ml
Number in %, nothing else.

Solved entries:
COMPOUND_STRUCTURE: C/C=C1/C[N@@+]2(C)CC[C@@]34c5ccccc5N[C@]32C(=O)[C@]2(C)OC[C@@]4(C(=O)[O-])[C@H]12
UOM: %
inhibition: 5.5
//
COMPOUND_STRUCTURE: C/C=C1/C[N@@+]2(C)CC[C@@]34c5ccccc5N[C@]32C(=O)[C@@H]2COC[C@@]4(C(=O)[O-])[C@H]12
UOM: %
inhibition: 49.2

Kindly note the recorded inhibition for C/C=C1/C[N@@+]2(C)CC[C@@]34c5ccccc5N[C@]32C(=O)[C@H]2[C@@H]1[C@]4(C(=O)[O-])CO[C@@H]2C , which is 17

Kindly note the recorded inhibition for C/C=C1/C[N@@+]2(C)CC[C@@]34c5ccccc5N[C@]32C(=O)[C@@H]2[C@H](C)OC[C@@]4(C(=O)[O-])[C@H]12 , which is 5.1
